assay: Intrinsic cytotoxicity against human K562 cells assessed as cell survival […] by MTT assay; format: cell-based; details: read-out: Survival
Reported Endpoint: viability (%)
Give bare numbers, in %.

Please review the following examples before continuing.
Compound | viability, %
CC(=O)[C@H]1CC[C@H]2[C@H]3[C@H]([C@H](OC(=O)c4ccccc4)C[C@]12C)[C@@]1(C)CCC(=O)C[C@H]1C[C@H]3O[C@H]1CCCCO1 | 70.5
CC#C[C@]1(O)CC[C@H]2[C@@H]3CCC4=CC(=O)CCC4=C3[C@@H](c3ccc(N(C)C)cc3)C[C@@]21C | 95.6

The record that follows has no viability shown yet.
Dear colleague, please send me the reported viability for COC(=O)CCC(C)[C@H]1CC[C@H]2[C@@H]3[C@H](OC(=O)c4ccccc4)C[C@@H]4CC(=O)CC[C@]4(C)[C@H]3C[C@H](OC(=O)c3ccccc3)[C@]12C (stereo partly drawn) when you can. 57.3
